assay: in vitro; settings: sheep, pH 7
recorded_metric: hemolysis at 24 h, 125 µg/mL (%)
Report only the number, with the unit % understood.

According to the records, this compound Cc1cc(S(=O)(=O)NC(=O)C=Cc2ccccc2)c(SCc2cccc3ccccc23)cc1Cl [Compound 16a] displays hemolysis at 24 h, 125 µg/mL of 43

* * *

IC50 listing for selected molecules.
tested on: HeLa cells; experiment: MTT assay; format: cell-based, human; details: Homo sapiens, HeLa, 24 h, HeLa; MTT, 24 h treatment; read-out: IC50
Quick note: give the figure in µg/mL, leave out the unit.

Worked examples, 2 molecules total:
molecule | IC50 / µg/mL
Cc1cc(S(=O)(=O)NC(=O)/C=C/c2ccc(F)cc2)c(SCc2cc3c(cc2Cl)OCO3)cc1Cl [Compound 17b] | 12
Cc1cc(S(=O)(=O)NC(=O)/C=C/c2ccc(F)cc2)c(SCc2cccc3ccccc23)cc1Cl [Compound 16c] | 11.2

Next molecule, IC50 to be filled in.
Reported IC50 (HeLa cells) for entry COc1ccc(/C=C/C(=O)NS(=O)(=O)c2cc(C)c(Cl)cc2SCc2cccc3ccccc23)cc1F [Compound 16e] is 12.3

* * *

test system: S. epidermidis ATCC 14990; test: Blood bacteriostatic activity test in sheep blood; type: cell-based, Staphylococcus epidermidis; conditions: 4 µg/mL, 24 h, 37 °C, t0 1.70 × 10^7, control t24 5.10 × 10^8
recorded_metric: Number of viable cells of Staphylococcus epidermidis

Worked examples, 3 compounds total:
compound | result
Cc1cc(S(=O)(=O)NC(=O)C=Cc2ccccc2)c(SCc2cccc3ccccc23)cc1Cl [Compound 16a] | 1.10 × 10^6 CFU/mL
Cc1cc(S(=O)(=O)NC(=O)/C=C/c2ccc(Cl)cc2)c(SCc2cccc3ccccc23)cc1Cl [Compound 16d] | 2.00 × 10^6 CFU/mL
COc1ccc(/C=C/C(=O)NS(=O)(=O)c2cc(C)c(Cl)cc2SCc2cccc3ccccc23)cc1F [Compound 16e] | 3.20 × 10^6 CFU/mL

// next entry
Reported Number of viable cells of Staphylococcus epidermidis for Cc1cc(S(=O)(=O)NC(=O)/C=C/c2ccc(Cl)cc2)c(SCc2cc3c(cc2Cl)OCO3)cc1Cl [Compound 17c] was 1.40 × 10^7 CFU/mL

* * *

Entries and their IC50
tested on: HeLa cells; test: MTT assay; assay type: cell-based, human; conditions: Homo sapiens, HeLa, 24 h, HeLa; MTT, 24 h treatment; read-out: IC50
Note: unit µg/mL is implicit; provide only the numeric part.

# count of solved cases: 3
molecule | number
Cc1cc(S(=O)(=O)NC(=O)/C=C/c2ccc(Br)cc2)c(SCc2cccc3ccccc23)cc1Cl [Compound 16b] | 13.5
Cc1cc(S(=O)(=O)NC(=O)/C=C/c2ccc(Cl)cc2)c(SCc2cc3c(cc2Cl)OCO3)cc1Cl [Compound 17c] | 11.2
Cc1cc(S(=O)(=O)NC(=O)/C=C/c2ccc([N+](=O)[O-])cc2)c(SCc2cccc3ccccc23)cc1Cl [Compound 16f] | 62.8

Please turn your attention to the following entry.
IC50 in this record for CC[C@]1(O)C[C@@H]2CN(CCc3c([nH]c4ccccc34)[C@@](C(=O)OC)(c3cc4c(cc3OC)N(C)[C@H]3[C@@](O)(C(=O)OC)[C@H](OC(C)=O)[C@]5(CC)C=CCN6CC[C@]43[C@@H]65)C2)C1 [V. sulphate, Vinblastine sulphate, reference compound] : 0.005

* * *

test system: S. aureus ATCC 6538; experiment: Blood bacteriostatic activity test in sheep blood; format: cell-based, Staphylococcus aureus; settings: 8 µg/mL, 24 h, 37 °C, t0 1.30 × 10^8, control t24 2.28 × 10^9
recorded_metric: Number of viable cells of Staphylococcus aureus

molecule | result
Cc1cc(S(=O)(=O)NC(=O)/C=C/c2ccc(Cl)cc2)c(SCc2cccc3ccccc23)cc1Cl [Compound 16d] | 1.27 × 10^8 CFU/mL
COc1ccc(/C=C/C(=O)NS(=O)(=O)c2cc(C)c(Cl)cc2SCc2cccc3ccccc23)cc1F [Compound 16e] | 2.80 × 10^8 CFU/mL
Cc1cc(S(=O)(=O)NC(=O)C=Cc2ccccc2)c(SCc2cccc3ccccc23)cc1Cl [Compound 16a] | 1.29 × 10^8 CFU/mL

Kindly review the next molecule as well.
Looking up Cc1cc(S(=O)(=O)NC(=O)/C=C/c2ccc(Cl)cc2)c(SCc2cc3c(cc2Cl)OCO3)cc1Cl [Compound 17c] , I see its Number of viable cells of Staphylococcus aureus listed as 9.35 × 10^7 CFU/mL

* * *

assay: in vitro; conditions: sheep, defibrinated sheep blood diluted 1:9 v/v with PBS, pH 7
recorded_metric: hemolysis at 24 h, 62.5 µg/mL (%)
Report as a plain number; the unit % is understood.

Reported hemolysis at 24 h, 62.5 µg/mL for Cc1cc(S(=O)(=O)NC(=O)/C=C/c2ccc(F)cc2)c(SCc2cc3c(cc2Cl)OCO3)cc1Cl [Compound 17b] was 9
